Values from patent US20240270821A1

Target: T1, human GIP receptor (human) (UniProt P48546)
T1 sequence (looked up): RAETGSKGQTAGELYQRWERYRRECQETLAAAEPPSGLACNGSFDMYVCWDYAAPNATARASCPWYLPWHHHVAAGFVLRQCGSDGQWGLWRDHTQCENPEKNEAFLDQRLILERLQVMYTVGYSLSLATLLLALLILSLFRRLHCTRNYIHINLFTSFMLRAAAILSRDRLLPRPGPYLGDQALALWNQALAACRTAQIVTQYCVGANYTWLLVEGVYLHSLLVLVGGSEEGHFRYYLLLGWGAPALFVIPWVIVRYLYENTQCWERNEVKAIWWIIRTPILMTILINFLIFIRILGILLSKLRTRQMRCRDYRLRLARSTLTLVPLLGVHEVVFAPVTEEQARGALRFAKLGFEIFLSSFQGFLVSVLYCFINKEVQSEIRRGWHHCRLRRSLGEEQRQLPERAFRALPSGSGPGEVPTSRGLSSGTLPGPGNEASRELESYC
Assay: cell-based or functional assay
# cAMP Rel EC50, nM (1% HSA) values compiled below
Assay readout: cAMP Rel EC50, nM (1% HSA) (nM)

* YXQGTFTSDFSXXLDKKAQXAFIEYLLEXGXSSGAPPPSGS (acylated; synthetic construct; SITE 2: note = 2-Aminoisobutyric Acid; SITE 12: note = L-ornithine; SITE 13: note = alpha-methyl-leucine; SITE 17: note = Lysine is chemically modified through conjugation of the epsilon-amino group of the Lysine side chain with (2-[2-(2-Amino-ethoxy)-ethoxy]-acetyl)-(gamma-Glu)) [Example 242] | 5.94
* YXQGTFTSDFSXXLDKKAQXAFIEYLLEGGPSSGAPPPGGT (synthetic construct; SITE 2: note = 2-Aminoisobutyric Acid; SITE 12: note = L-ornithine; SITE 13: note = alpha-methyl-leucine; SITE 17: note = Lysine is chemically modified through conjugation of the epsilon-amino group of the Lysine side chain with (2-[2-(2-Amino-ethoxy)-ethoxy]-acetyl)-(gamma-Glu)) [Example 158] | 24.7
* YXQGTXTSDYSILLDKKAQXAFIEYLEEGGPSSGAPPPE (not fully specified; synthetic construct; SITE 2: note = 2-Aminoisobutyric Acid; SITE 6: note = alpha-methyl-2-fluoro-L-phenylalanine; SITE 17: note = Lysine is chemically modified through conjugation of the epsilon-amino group of the Lysine side chain with (2-[2-(2-Amino-ethoxy)-ethoxy]-acetyl)-(gamma-Glu)-CO-(CH2) 16-) [Example 388] | 14.1
